Response by entry:
# test_target: T1, Rhesus macaque CD4-HIS (Acro Biosystems, Cat. CD4-C52H7) (rhesus macaque, UniProt P16003 26-390)
# T1 construct: Bought reagent; also called Rhesus CD4; rhesus CD4-HIS; not shown: His tag
# T1 sequence (P16003 26-390 limits assumed): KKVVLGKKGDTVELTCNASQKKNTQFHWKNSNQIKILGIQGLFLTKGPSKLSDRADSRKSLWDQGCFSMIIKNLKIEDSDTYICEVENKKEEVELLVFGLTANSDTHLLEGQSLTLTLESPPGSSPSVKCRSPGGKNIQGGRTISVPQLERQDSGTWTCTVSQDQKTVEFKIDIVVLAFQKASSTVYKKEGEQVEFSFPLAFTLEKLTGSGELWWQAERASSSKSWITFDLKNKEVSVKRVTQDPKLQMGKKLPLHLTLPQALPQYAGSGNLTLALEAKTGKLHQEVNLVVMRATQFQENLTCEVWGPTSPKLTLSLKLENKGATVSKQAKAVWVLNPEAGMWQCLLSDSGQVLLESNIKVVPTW
# test: BLI Octet, mAb on anti-mouse Fc sensor, rhesus CD4-HIS 25-100 nM, 1:1 global fit;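 note: purified antibodies captured at 10 µg/mL, rhesus CD4 analyte run as a three-concentration serial dilution, irrelevant antibody as reference control, one kinetic constant set per antibody from global fitting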

>  <binder>
75110_04B08A (antibody, V domains shown, Tested as antibody purified from AlivaMab Mouse hybridoma supernatant (captured by anti-mouse IgG Fc)) VH: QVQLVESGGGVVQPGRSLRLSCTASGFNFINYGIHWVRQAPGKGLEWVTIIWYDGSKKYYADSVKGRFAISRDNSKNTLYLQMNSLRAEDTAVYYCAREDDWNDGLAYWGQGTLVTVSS VL: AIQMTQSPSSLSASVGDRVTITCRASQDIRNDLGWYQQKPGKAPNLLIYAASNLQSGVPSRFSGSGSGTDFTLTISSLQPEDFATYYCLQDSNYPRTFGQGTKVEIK

>  <Response>
0.26

$$$$
>  <binder>
75110_03D16A (antibody, V domains shown, Tested as antibody purified from AlivaMab Mouse hybridoma supernatant (captured by anti-mouse IgG Fc)) VH: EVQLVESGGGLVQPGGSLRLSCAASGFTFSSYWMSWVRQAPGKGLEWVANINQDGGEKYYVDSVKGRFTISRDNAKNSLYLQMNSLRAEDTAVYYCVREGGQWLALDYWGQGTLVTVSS VL: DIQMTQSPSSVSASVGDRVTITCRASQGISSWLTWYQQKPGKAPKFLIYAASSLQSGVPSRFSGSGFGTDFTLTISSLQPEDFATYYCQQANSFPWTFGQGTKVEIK

>  <Response>
0.1

$$$$

The reported measurements were obtained from patent US20220112288A1.
